- target-entity: mouse TMEM16A mutant R515A (Mus musculus, UniProt Q8BHY3, R515A)
- Construct: expressed in transfected cells; host or cells: HEK293T
- Sequence (Q8BHY3 1-960 R515A): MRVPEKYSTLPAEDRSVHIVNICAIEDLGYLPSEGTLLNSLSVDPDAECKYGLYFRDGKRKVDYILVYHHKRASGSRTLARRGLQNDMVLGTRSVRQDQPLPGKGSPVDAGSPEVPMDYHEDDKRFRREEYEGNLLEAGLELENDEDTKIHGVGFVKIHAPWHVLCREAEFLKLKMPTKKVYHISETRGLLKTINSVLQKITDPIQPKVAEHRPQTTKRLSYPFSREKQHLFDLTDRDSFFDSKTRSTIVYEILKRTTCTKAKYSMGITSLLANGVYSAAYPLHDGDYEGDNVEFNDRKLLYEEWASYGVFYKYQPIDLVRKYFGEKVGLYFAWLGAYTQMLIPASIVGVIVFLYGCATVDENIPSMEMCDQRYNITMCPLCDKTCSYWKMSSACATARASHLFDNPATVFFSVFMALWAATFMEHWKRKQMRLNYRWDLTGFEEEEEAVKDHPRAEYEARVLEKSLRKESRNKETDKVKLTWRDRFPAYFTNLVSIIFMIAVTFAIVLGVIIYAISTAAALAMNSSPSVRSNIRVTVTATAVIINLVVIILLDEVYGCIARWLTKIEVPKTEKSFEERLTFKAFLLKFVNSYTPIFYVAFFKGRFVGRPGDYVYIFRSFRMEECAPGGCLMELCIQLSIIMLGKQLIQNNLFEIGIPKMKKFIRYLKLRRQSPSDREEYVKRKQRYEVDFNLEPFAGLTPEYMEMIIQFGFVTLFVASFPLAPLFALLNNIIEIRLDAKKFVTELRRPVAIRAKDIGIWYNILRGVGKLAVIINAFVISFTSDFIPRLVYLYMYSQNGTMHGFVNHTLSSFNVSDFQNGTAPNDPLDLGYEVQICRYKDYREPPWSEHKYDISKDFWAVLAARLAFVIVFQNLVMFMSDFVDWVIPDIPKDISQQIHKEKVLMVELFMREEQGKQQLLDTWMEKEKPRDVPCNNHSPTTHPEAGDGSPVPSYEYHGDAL
- measurement-notes: Inside-out patch recording of 1PBC block, mutant R515A
- Assay type: cell-based
- setup-conditions: R515A; V 120 mV
readout-type: IC50 (µM)
Provide only the numeric value, understood in µM.

With mouse TMEM16A mutant R515A (Mus musculus, UniProt Q8BHY3, R515A) as the test system, provide measured IC50 for this compound: N#Cc1c(C(F)(F)F)cc(O)n2c1nc1ccccc12
84.4
